Assay: pH of AQ4N salts in aqueous solution
Format: physicochemical
Conditions: 1.4 mM in water; in Table 4 the label is the acid whose AQ4N disalt was measured
Please respond with reported measured pH of AQ4N di-salt solutions (1.4 mM) for every item in the list.
Give the figure only, with no unit attached.

(Q) Report measured pH of AQ4N di-salt solutions (1.4 mM) for C[N+](C)([O-])CCNc1ccc(NCC[N+](C)(C)[O-])c2c1C(=O)c1c(O)ccc(O)c1C2=O.Cl.Cl [AQ4N dihydrochloride]
(A) 2.4

(Q) Give the reported measured pH of AQ4N di-salt solutions (1.4 mM) for this molecule. CC(O)C(=O)O (racemic) [Lactic, Lactic acid]
(A) 3.5

(Q) Complete the entry with measured pH of AQ4N di-salt solutions (1.4 mM) for O=C(O)/C=C\C(=O)O [Maleic, maleic acid]
(A) 2.6

(Q) Write down measured pH of AQ4N di-salt solutions (1.4 mM) measured for item O=C(O)CC(O)(CC(=O)O)C(=O)O [Citric, citric acid]
(A) 3.3

(Q) For the molecule O=S(=O)(O)c1ccccc1 [Benzenesulfonic, benzenesulfonic acid] , give its measured measured pH of AQ4N di-salt solutions (1.4 mM) value.
(A) 2.5

(Q) Note down measured pH of AQ4N di-salt solutions (1.4 mM) recorded for O=C(O)CC(=O)O [Malonic, malonic acid]
(A) 2.8

(Q) Report measured pH of AQ4N di-salt solutions (1.4 mM) for CC(=O)O [Acetic, acetic acid]
(A) 3.8

(Q) Entry Cl [Hydrochloric, hydrochloric acid] needs its measured pH of AQ4N di-salt solutions (1.4 mM) filled in; supply it.
(A) 2.4

(Q) Specify measured pH of AQ4N di-salt solutions (1.4 mM) for O=C(O)C(O)C(O)C(=O)O (centres unmarked) [Tartaric, tartaric acid] and stop.
(A) 2.8

(Q) Annotate the molecule O=C(O)C(Cl)Cl [Dichloroacetic, dichloroacetic acid] with its measured measured pH of AQ4N di-salt solutions (1.4 mM).
(A) 2.4

(Q) # return recorded measured pH of AQ4N di-salt solutions (1.4 mM) for input O=C(O)CCCCCC(=O)O [Pimelic, pimelic acid]
(A) 3.8

These measurements were taken from patent US20050256188A1.
